Reference source for all entries: ChEMBL document CHEMBL1154793

target: UniProt:P06401; assay: Displacement of [3H]progesterone from progesterone receptor in human T47D cells after 3 hrs by scintillation counting; format: cell-based
Sequence (P06401 whole entry): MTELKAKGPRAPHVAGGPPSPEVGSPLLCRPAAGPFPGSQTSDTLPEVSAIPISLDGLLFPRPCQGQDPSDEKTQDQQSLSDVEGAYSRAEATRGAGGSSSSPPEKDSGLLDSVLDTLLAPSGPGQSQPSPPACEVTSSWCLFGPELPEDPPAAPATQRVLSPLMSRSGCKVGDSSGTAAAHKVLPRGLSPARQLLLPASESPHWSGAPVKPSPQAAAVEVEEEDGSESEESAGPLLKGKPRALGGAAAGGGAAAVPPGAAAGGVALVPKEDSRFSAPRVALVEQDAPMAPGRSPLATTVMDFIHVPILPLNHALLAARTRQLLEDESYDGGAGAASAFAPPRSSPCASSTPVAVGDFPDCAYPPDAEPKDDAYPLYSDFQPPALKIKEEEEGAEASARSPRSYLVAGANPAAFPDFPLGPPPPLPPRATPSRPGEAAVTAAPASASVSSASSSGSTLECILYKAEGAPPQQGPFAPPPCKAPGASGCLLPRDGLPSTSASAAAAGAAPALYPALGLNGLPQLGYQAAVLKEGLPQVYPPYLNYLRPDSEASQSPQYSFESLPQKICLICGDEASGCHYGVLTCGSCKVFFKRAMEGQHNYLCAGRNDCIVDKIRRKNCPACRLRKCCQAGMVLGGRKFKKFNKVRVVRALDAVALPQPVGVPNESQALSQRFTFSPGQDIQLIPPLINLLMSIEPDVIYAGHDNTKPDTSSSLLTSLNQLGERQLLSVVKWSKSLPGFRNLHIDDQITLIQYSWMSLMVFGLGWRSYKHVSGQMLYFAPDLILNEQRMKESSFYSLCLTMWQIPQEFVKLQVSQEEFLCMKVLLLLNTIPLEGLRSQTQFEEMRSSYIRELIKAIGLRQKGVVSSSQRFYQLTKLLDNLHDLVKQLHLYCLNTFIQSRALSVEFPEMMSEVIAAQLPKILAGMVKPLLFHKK
readout type: IC50 (nM)

{"columns": ["structure smiles", "val"],
 "data": [
  ["CC1(C)[C@H](O)CC[C@]2(C)[C@@]3(C)c4[nH]c5ccccc5c4C[C@@H]3CC[C@@]12O", 57.3]
]}

---

Biological target: Estrogen receptor (Homo sapiens, UniProt P03372)
Sequence (P03372 whole entry): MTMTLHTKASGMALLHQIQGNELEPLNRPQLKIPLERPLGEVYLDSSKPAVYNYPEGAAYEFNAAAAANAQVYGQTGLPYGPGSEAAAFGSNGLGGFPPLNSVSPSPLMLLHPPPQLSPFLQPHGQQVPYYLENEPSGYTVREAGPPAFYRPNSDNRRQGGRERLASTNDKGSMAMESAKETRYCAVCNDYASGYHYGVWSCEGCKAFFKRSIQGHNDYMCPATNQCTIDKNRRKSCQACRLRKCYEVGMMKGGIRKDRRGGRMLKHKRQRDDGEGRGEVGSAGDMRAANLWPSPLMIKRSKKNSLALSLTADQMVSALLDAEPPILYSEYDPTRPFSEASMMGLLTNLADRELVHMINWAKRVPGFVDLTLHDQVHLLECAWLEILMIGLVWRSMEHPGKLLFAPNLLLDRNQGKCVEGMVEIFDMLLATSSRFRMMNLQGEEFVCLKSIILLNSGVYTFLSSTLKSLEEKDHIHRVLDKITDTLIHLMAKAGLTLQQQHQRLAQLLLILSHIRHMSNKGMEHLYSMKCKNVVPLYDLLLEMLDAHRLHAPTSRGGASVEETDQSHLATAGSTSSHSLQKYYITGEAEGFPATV
pIC50: −log10 of the molar value.
readout type: pIC50

{"columns": ["compound", "val"],
 "data": [
  ["CC1(C)[C@H](O)CC[C@]2(C)[C@@]3(C)c4[nH]c5ccccc5c4C[C@@H]3CC[C@@]12O [LECANINDOLE D]", "< 5.00"]
]}
